Listed next: entries and their corresponding ATP decrease induced by Aβ1-42, Aβ1-42 control = 100% reduction.
System: PC12 cells
assay.explanation: Reversal of Aβ1-42-induced ATP depletion (ATPLite-M assay)
assay.conditions: compound 1 μM, 24 h pre-incubation; Aβ1-42 0.1 μM, 24 h
Record the value in %, omitting the unit from your answer.

Name the reported ATP decrease induced by Aβ1-42, Aβ1-42 control = 100% reduction value associated with the compound CC1=CCC23OC2(C)CCC2C(CN4CCN(C(=O)c5ccccc5)CC4)C(=O)OC2C13 (stereo not shown) [SP017]
28.1

// query ATP decrease induced by Aβ1-42, Aβ1-42 control = 100% reduction value for entry CCN(CC)CC(=O)Nc1c(C)cccc1C [Lidocaine]
38.7

Return reported ATP decrease induced by Aβ1-42, Aβ1-42 control = 100% reduction; argument: CCN(CC)CCOC(=O)c1ccc(N)cc1 [Procaine]
64.0

# query: ATP decrease induced by Aβ1-42, Aβ1-42 control = 100% reduction of entry CCN(CC)CCNC(=O)c1ccc(N)cc1 [Procainamide]
46.8

###

System: PC12 cells
assay.explanation: Reversal of Aβ1-42-induced ATP depletion (ATPLite-M assay)
assay.conditions: compound 1 μM, 24 h pre-incubation; Aβ1-42 0.1 μM, 24 h
ATP decrease induced by Aβ1-42, Aβ1-42 control = 100% reduction values by entry
Just the number please, in %, no unit attached.

CC(=O)OC1CC(OC(C)=O)C2(C)C(O)C3C(CC(C)C12)OC(=O)C3CN1CCN(C(=O)c2ccccc2)CC1 (stereo not drawn) [SP016] :: 49.5
CC(=O)OC1CC(O)C2(C)C(OC(C)=O)C3C(CC(C)C12)OC(=O)C3CN1CCN(C(=O)c2ccccc2)CC1 (stereo not drawn) [SP015] :: 46.3

# next molecule below
Recorded ATP decrease induced by Aβ1-42, Aβ1-42 control = 100% reduction of CCCCNc1ccc(C(=O)OCCN(C)C)cc1 [Tetracaine] , please.
54.8
